# TESTED ON: VEGF165 (vascular endothelial growth factor 165) (Homo sapiens, UniProt P15692-4 P15692-4:27-191)
# Sequence (P15692 other isoform, or with tags, fused parts or gaps): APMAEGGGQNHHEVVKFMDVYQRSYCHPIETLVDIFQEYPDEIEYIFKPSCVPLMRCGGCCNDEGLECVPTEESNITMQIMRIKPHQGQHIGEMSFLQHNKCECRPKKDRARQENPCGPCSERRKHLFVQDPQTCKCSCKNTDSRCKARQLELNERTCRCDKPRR
# ASSAY OVERVIEW: SPR; VEGF immobilized on CM5; TBS with 5 mM KCl, pH 7.4, 20 C
# EXPERIMENTAL CONTEXT: tags: R&D Systems, expressed in Sf21 insect cells; chain copies: 2 (inferred, homodimer); G4
MEASUREMENT NAME: pKd
Field pKd (float): negative decimal logarithm of the concentration in molar.

Q: If you can, please state the reported pKd value of TGTGGGGGTGGACGGGCCGGGTAGA (ssDNA) [VEap121] .
Result: 8.33
